Please provide measured IC50 for the entries that follow.
Subject of test: Tubulin
Experimental protocol: Inhibition of tubulin polymerization (unknown origin) in presence of GTP measured after 60 mins by spectrophotometric method
One number for each entry, in nM.

>>> assay_value("COc1cc(C(=O)/C(C)=C/c2ccc(OC)c(O)c2)cc(OC)n1")
2080

Next, consider the following compound.
Input: What value of IC50 has been reported for the following compound? `COc1ccc(/C=C/C(=O)c2cc(OC)c(OC)c(OC)c2)cc1O`
Output: 3050
